# key: entry, value: pIC50
target-desc: PRMT5 (Homo sapiens, UniProt O14744)
Construct: purchased Viva (custom protein)
Sequence (O14744 whole entry): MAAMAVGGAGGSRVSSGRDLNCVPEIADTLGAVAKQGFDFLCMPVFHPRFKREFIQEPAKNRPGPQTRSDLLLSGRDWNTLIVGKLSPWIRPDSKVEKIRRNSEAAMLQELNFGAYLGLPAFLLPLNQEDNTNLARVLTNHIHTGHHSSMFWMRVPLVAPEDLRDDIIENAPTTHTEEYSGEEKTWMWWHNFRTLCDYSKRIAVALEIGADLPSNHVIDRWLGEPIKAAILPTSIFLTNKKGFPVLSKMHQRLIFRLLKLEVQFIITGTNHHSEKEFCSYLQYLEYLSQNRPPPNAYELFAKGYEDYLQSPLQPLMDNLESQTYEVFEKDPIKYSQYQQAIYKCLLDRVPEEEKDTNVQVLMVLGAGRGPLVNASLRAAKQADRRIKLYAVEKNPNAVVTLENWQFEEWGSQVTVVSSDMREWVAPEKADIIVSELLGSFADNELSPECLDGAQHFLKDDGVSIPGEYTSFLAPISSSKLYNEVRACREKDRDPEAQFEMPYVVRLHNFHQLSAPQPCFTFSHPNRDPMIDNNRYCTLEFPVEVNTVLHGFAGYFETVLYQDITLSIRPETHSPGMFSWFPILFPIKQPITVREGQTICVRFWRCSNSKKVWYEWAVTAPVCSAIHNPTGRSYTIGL
Sequence (Q9BQA1 whole entry partner): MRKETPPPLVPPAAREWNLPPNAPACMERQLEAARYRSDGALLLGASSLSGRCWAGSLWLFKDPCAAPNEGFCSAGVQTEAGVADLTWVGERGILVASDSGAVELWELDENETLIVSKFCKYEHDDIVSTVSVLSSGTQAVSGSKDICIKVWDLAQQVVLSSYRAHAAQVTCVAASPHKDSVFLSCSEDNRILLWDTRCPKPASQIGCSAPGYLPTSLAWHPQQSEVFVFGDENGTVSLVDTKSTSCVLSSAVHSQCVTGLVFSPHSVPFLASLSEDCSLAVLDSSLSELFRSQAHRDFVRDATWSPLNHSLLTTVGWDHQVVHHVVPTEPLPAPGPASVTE
protocol-notes: PRMT5 biochemical IC50 assay with no cofactor
run-conditions: PRMT5, no cofactor; read-out: No Cofactor/ rel IC50
pIC50: −log10 of the molar value.

[[record]]
compound = "Cc1cncc(NC(=O)C(=O)N2C[C@H](C)CC[C@H]2c2cccc(N)c2)c1 (racemic) [Compound 91]"
quantity_name = "pIC50"
result = "< 6.30"


**Query** GET /values?readout=pIC50&item= CCc1cc(NC(=O)C(=O)N2C[C@@H](C)CC[C@@H]2c2ccc3sc([C@@H](C)N(C)C)nc3c2)cnc1N (single isomer, unassigned) [Compound 1316]
**Result** > 7.30

**Query** Would you kindly repeat that for CCc1cc(NC(=O)C(=O)N2C[C@@H](C)CC[C@@H]2c2ccc3sc(N4CCN(C)CC4)nc3c2)cnc1N [Compound 1244] ?
**Result** > 7.30

**Query** Would you kindly repeat that for CCc1cc(NC(=O)C(=O)N2C[C@@H](C)CC[C@@H]2c2ccc(OCCN(C)C)c(Cl)c2)cnc1N (racemic) [Compound 1305] ?
**Result** > 7.30

**Query** Would you kindly repeat that for CCc1cc(NC(=O)C(=O)N2C[C@H](C)CC[C@H]2c2ccc3sc(CCOC)nc3c2)cnc1N (single isomer, unassigned) [Compound 1375] ?
**Result** < 6.30

**Query** Would you kindly repeat that for CC1(C)CCC(c2ccccc2)N(C(=O)C(=O)Nc2cncc(C(N)=O)c2)C1 (centres unmarked) [Compound 45] ?
**Result** < 6.30

**Query** Would you kindly repeat that for Cc1cc(NC(=O)C(=O)N2C[C@@H](C)CC[C@@H]2c2ccc3sc(C4COC4)nc3c2)cnc1N [Compound 1266] ?
**Result** > 7.30

**Query** Would you kindly repeat that for C[C@@H]1CN(C(=O)C(=O)Nc2cnc(N)c(C3CC3)c2)[C@@H](c2ccc3scnc3c2)CC1(F)F (single isomer, unassigned) [Compound 1307] ?
**Result** 6.30 to 7.30

**Query** Would you kindly repeat that for C[C@@H]1CC[C@@H](c2ccc3cn(C)nc3c2)N(C(=O)C(=O)Nc2cnc(N)c(C3CC3)c2)C1 (single isomer, unassigned) [Compound 1403] ?
**Result** > 7.30

**Query** Would you kindly repeat that for Cc1cccc(C2CCCCN2C(=O)C(=O)Nc2cnc(N)c(C)c2)c1 (racemic) [Compound 31] ?
**Result** 6.30 to 7.30
